# System: ACHN renal
# experimental-protocol: NCI tumour cell line growth inhibition, 48 h
measured-property: TGI

compound | recorded-measurement
CCCC(=O)c1c(NOC2OCC(OC(C)=O)C(OC(C)=O)C2OC(C)=O)nc(OC)n(C)c1=O (centres undefined) | > 100 µM
O=C1CCC2(c3ccc(F)cc3)Nc3ncccc3N12 (centres undefined) | > 100 µM
CCOC(=O)/C(=C\NCc1ccc2c(c1)OCO2)c1nc2ccccc2[nH]1 | > 100 µM
C=C1C(=O)O[C@H]2[C@H]1CC/C(COC(=O)CCCC(=O)OC/C1=C/CC[C@@]3(C)O[C@H]3[C@H]3OC(=O)C(=C)[C@@H]3CC1)=C\CC[C@@]1(C)O[C@@H]21 | 2.03 µM

###

We begin with a simple list: items and their reported TGI.
# System: SK-MEL-28 melanoma
# experimental-protocol: NCI tumour cell line growth inhibition, 48 h

compound | tested-target | TGI
c1ccc2c3ccn4ccc5c6ccccc6[nH]c5c4c-3nc2c1 | SK-MEL-28 melanoma | 3.2 µM
CN(C)CCCNCc1ccc(-c2ccc(F)c(Cl)c2)o1 | SK-MEL-28 melanoma | 22.1 µM
CC(=O)NNc1nc(C)c(C(=O)/C=C/c2cccc([N+](=O)[O-])c2)s1 | SK-MEL-28 melanoma | > 100 µM
C=C1C(=O)O[C@H]2[C@H]1CC/C(COC(=O)CCSSCCC(=O)OC/C1=C/CC[C@@]3(C)O[C@H]3[C@H]3OC(=O)C(=C)[C@@H]3CC1)=C\CC[C@@]1(C)O[C@@H]21 | SK-MEL-28 melanoma | 2.95 µM
O=C(CCc1ccc(O)c(O)c1)NCCc1cc(O)cc(OCc2ccccc2)c1 | SK-MEL-28 melanoma | > 100 µM
CCOC(=O)c1cn2c(n1)sc1cc(C)c(C)cc12 | SK-MEL-28 melanoma | 48.4 µM
COC(=O)C1Cc2c([nH]c3ccccc23)C(c2ccccc2O)N1 (stereo not given) | SK-MEL-28 melanoma | > 100 µM
CC(C)CSCC1OC(n2cnc3c(N)nccc32)C(O)C1O (stereo not given) | SK-MEL-28 melanoma | > 100 µM
N#Cc1nc(C(O)c2ccccc2)oc1N (stereo not given) | SK-MEL-28 melanoma | > 100 µM
CCC1(O)CC(OC2CC(N(C)C)C(OC3CC(O)C(OC4CCC(=O)C(C)O4)C(C)O3)C(C)O2)c2c(cc3c(c2O)C(=O)c2c(O)ccc(O)c2C3=O)C1C(=O)OC (stereo not given) | SK-MEL-28 melanoma | 0.211 µM
C/C(=N\NC(=O)c1ccncc1)c1ccccc1Cl | SK-MEL-28 melanoma | > 100 µM
COc1ccc(Nc2nc3c(N)cc(C(F)(F)F)cc3nc2-c2ccccc2)cc1OC | SK-MEL-28 melanoma | > 100 µM
O=C(OCCOC(=O)c1ccc2c(c1)C1(SCCS1)c1ccccc1-2)c1ccc2c(c1)C1(SCCS1)c1ccccc1-2 | SK-MEL-28 melanoma | > 100 µM
CC(=O)OCCOCn1c2c(c(=O)[nH]c1=O)CCC2 | SK-MEL-28 melanoma | > 100 µM
Cc1cc(Nc2ccc3c(c2)OCO3)c2cc3c(cc2n1)OCO3 | SK-MEL-28 melanoma | 14.1 µM
CCOC(=O)/C(C#N)=C/c1ccc(SCc2ccco2)c([N+](=O)[O-])c1 | SK-MEL-28 melanoma | > 100 µM
Cc1ccc(S(=O)(=O)NC(C(=O)O)C(C)C)cc1 (stereo not given) | SK-MEL-28 melanoma | > 100 µM
O=c1c2ccc(Cl)cc2oc2c(CNc3ccc(S(=O)(=O)Nc4nccs4)cc3)cccc12 | SK-MEL-28 melanoma | > 100 µM
Cc1cc(C2CC(O)C(CO)O2)c(Cl)cc1Cl (stereo not given) | SK-MEL-28 melanoma | > 100 µM
COC(=O)C(Cc1ccc2c(c1)CCCC2)Cc1cc2c(cc1C(O)OC)CCC2 (stereo not given) | SK-MEL-28 melanoma | > 100 µM
